- target of assay: T1, human GIP receptor (human) (UniProt P48546)
- T1 sequence (looked up): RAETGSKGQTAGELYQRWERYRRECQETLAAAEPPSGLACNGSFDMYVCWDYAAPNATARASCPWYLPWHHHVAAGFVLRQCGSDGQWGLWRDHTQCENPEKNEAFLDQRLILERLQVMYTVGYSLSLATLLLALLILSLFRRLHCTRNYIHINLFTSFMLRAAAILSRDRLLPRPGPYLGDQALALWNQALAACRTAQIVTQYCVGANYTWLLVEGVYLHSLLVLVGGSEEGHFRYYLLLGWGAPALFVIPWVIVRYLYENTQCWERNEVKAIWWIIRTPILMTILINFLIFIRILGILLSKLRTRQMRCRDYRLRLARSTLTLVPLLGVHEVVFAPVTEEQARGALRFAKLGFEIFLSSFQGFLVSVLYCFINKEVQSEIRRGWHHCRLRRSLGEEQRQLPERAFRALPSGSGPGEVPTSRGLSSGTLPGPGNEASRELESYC
- experiment summary: cell-based or functional assay
Starred links: 1 amine or outer side, 2 acyl side, 3 side chain; linkers in the order of their positions; H or OH if unused. Non-standard residues stand in square brackets, D forms with d. Groups on a side chain read outwards from the residue. No end group written: not given here. *: point of attachment. C20 diacid = O=C(O)CCCCCCCCCCCCCCCCCCC(=O)*; αMePhe(2-F) = C[C@](N)(Cc1ccccc1F)C(=O)O; γGlu = O=C(O)[C@H](CCC(=O)[*:2])N[*:1]; αMeL = CC(C)C[C@](C)(N)C(=O)O; AEEA = NCCOCCOCC(=O)O; Aib = CC(C)(N)C(=O)O
Please note: rule met applies when cAMP Rel EC50 (1% HSA) is 20 nM or greater, and rule not met applies otherwise.

• YXQGTFTSDXSQXLDXKAQXAFIEXLIEXGPSSGEPPPSGSEE (non-natural residues, C18 diacid-(γGlu)2 acyl on K, C-terminal amide; synthetic construct; SITE 2: note = 2-Aminoisobutyric Acid; SITE 10: note = 3-(4-Pyridyl)-L-alanine; SITE 13: note = alpha-methyl-leucine; SITE 16: note = L-ornithine; SITE 17: note = Lysine is chemically modified through conjugation of the epsilon-amino group of the Lysine side chain with (gamma-Gl)) [Example 1093] = rule met
• YXQGTXTSDXXIXLDXKAQXXFIEXLTEGGPSSGEPPPSGTE (synthetic construct; SITE 2: note = 2-Aminoisobutyric Acid; SITE 6: note = alpha-methyl-2-fluoro-L-phenylalanine; SITE 10: note = 3-(4-Pyridyl)-L-alanine; SITE 11: note = alpha-methyl-L-serine; SITE 13: note = alpha-methyl-leucine; SITE 16: note = L-ornithine; SITE 17: note = Lysine is chemically mo) [Example 542] = rule not met
• YXQGTXTSDXXIXLDXKAQXXFIEXLTEGGPSSGEPPPSGTGE (synthetic construct; SITE 2: note = 2-Aminoisobutyric Acid; SITE 6: note = alpha-methyl-2-fluoro-L-phenylalanine; SITE 10: note = 3-(4-Pyridyl)-L-alanine; SITE 11: note = alpha-methyl-L-serine; SITE 13: note = alpha-methyl-leucine; SITE 16: note = L-ornithine; SITE 17: note = Lysine is chemically mo) [Example 543] = rule not met
• Y[Aib]QGT[αMePhe(2-F)]TSDYSILLDKQAAKAFIEYLIEGGPSSGEPPPSEG-NH2 (not fully specified (residue 20)) [Example 331] = rule met
• YXQGTFTSDXSQXLDKKAQXAFIEYLIEXGPSSGAPPPSGS (Lys acylated γGlu-C18 diacid; non-natural residues; C-amide; synthetic construct; SITE 2: note = 2-Aminoisobutyric Acid; SITE 10: note = 3-(4-Pyridyl)-L-alanine; SITE 13: note = alpha-methyl-leucine; SITE 17: note = Lysine is chemically modified through conjugation of the epsilon-amino group of the Lysine side chain with (gamma-Glu)-(D-Glutamic acid)2-CO-(CH2)) [Example 922] = rule not met
• YXQGTFTSDXSQXLDXKAQXAFIEXLLEGGPSSGAPPPSGSEE (non-natural residues; lysine acylated γGlu-C18 diacid; C-terminal amide; synthetic construct; SITE 2: note = 2-Aminoisobutyric Acid; SITE 10: note = 3-(4-Pyridyl)-L-alanine; SITE 13: note = alpha-methyl-leucine; SITE 16: note = L-ornithine; SITE 17: note = Lysine is chemically modified through conjugation of the epsilon-amino group of the Lysine side chain with D-Glutami) [Example 1058] = rule met
• YXQGTXTSDXXILLDXKAQXXFIEXLQEGGPSSGEPPPEGAE (synthetic construct; SITE 2: note = 2-Aminoisobutyric Acid; SITE 6: note = alpha-methyl-2-fluoro-L-phenylalanine; SITE 10: note = 3-(4-Pyridyl)-L-alanine; SITE 11: note = alpha-methyl-L-serine; SITE 16: note = L-ornithine; SITE 17: note = Lysine is chemically modified through conjugation of the epsi) [Example 546] = rule not met
• YXQGTFTSDXSQXLDXKAQXAFIQXLIEGGPSSGAPPPSGSEE (Aib, 4Pal, αMeL, Orn, Me4Pal, αMeY; acylated Lys; C-terminal amide; synthetic construct; SITE 2: note = 2-Aminoisobutyric Acid; SITE 10: note = 3-(4-Pyridyl)-L-alanine; SITE 13: note = alpha-methyl-leucine; SITE 16: note = L-ornithine; SITE 17: note = Lysine is chemically modified through conjugation of the epsilon-amino group of the Lysine side chain with D-Glutami) [Example 1072] = rule not met
• YXQGTFTSDXSQXLDXKAQXQFIQXLIEXGPSSGEPPPSGGGE (non-natural residues; lysine acylated with C18 diacid; C-terminal amide; synthetic construct; SITE 2: note = 2-Aminoisobutyric Acid; SITE 10: note = 3-(4-Pyridyl)-L-alanine; SITE 13: note = alpha-methyl-leucine; SITE 16: note = L-ornithine; SITE 17: note = Lysine is chemically modified through conjugation of the epsilon-amino group of the Lysine side chain with D-Glutami) [Example 1129] = rule not met
• Y[Aib]QGTFTSDYSI[αMeL]LDKQAAK([AEEA-AEEA-γGlu-C20 diacid])QFVNWLLA[Aib]GPSSGEPPPSEG-NH2 [Example 325] = rule met
• Y[Aib]QGTFTSDYSI[αMeL]LDKQAAK([AEEA-AEEA-γGlu-C20 diacid])QFVEWLLA[Aib]GPSSGAPPPSEG-NH2 [Example 327] = rule met
• YXQGTFTSDFSRXLDKKAQXAFIEYLIEXSPSSGAPPPSGS (synthetic construct; SITE 2: note = 2-Aminoisobutyric Acid; SITE 13: note = alpha-methyl-leucine; SITE 17: note = Lysine is chemically modified through conjugation of the epsilon-amino group of the Lysine side chain with (2-[2-(2-Amino-ethoxy)-ethoxy]-acetyl)-(gamma-Glu)-CO-(CH2) 16-CO2H; SITE 20: n) [Example 806] = rule not met
• YXQGTFTSDXSQXLDXKAQXQFIEXLIEXGPSSGEPPPSGSEE (not fully specified; non-natural residues; Lys acylated C18 diacid via γGlu; C-term amide; synthetic construct; SITE 2: note = 2-Aminoisobutyric Acid; SITE 10: note = 3-(4-Pyridyl)-L-alanine; SITE 13: note = alpha-methyl-leucine; SITE 16: note = L-ornithine; SITE 17: note = Lysine is chemically modified through conjugation of the epsilon-amino group of the Lysine side chain with D-Glutami) [Example 1104] = rule not met
• YXQGTFTSDFSXXLDXKAQXAFIEXLLAGGPSSGAPPPEGSEE (non-natural residues, (γGlu)2-C18 diacid lysine acylation, C-terminal amide; synthetic construct; SITE 2: note = 2-Aminoisobutyric Acid; SITE 12: note = L-ornithine; SITE 13: note = alpha-methyl-leucine; SITE 16: note = L-ornithine; SITE 17: note = Lysine is chemically modified through conjugation of the epsilon-amino group of the Lysine side chain with (gamma-Glu)2-CO-(CH2)) [Example 1053] = rule not met
• YXQGTFTSDXSQXLDXKAQXAFIEXLIAGGPSSGAPPPSGSEE (non-natural residues; C18 diacid-γ-Glu acyl on Lys; C-terminal amide; synthetic construct; SITE 2: note = 2-Aminoisobutyric Acid; SITE 10: note = 3-(4-Pyridyl)-L-alanine; SITE 13: note = alpha-methyl-leucine; SITE 16: note = L-ornithine; SITE 17: note = Lysine is chemically modified through conjugation of the epsilon-amino group of the Lysine side chain with D-Glutami) [Example 1074] = rule not met
• YXQGTFTSDXSQXLDXKAQXQFIEXLLAGGPSSGAPPPSGSEEE (Lys acylated γGlu-C18 diacid; non-natural residues; C-terminal amide; synthetic construct; SITE 2: note = 2-Aminoisobutyric Acid; SITE 10: note = 3-(4-Pyridyl)-L-alanine; SITE 13: note = alpha-methyl-leucine; SITE 16: note = L-ornithine; SITE 17: note = Lysine is chemically modified through conjugation of the epsilon-amino group of the Lysine side chain with D-Glutami) [Example 1084] = rule not met
• Y[Aib]QGTFTSDYSK[αMeL]LDKK([AEEA-γGlu-C20 diacid])AQQAFVQWLIEGGPSSGEPPPSEG-NH2 [Example 315] = rule met
• Y[Aib]QGTFTSDYSI[αMeL]LDKIAAK([AEEA-AEEA-γGlu-C20 diacid])QFVEYLIAGGPSSGEPPPSEG-NH2 [Example 312] = rule met
• YXQGTXTSDXXIXLDXKAAXEFIEXLIEGGPSSGEPPPSGS (synthetic construct; SITE 2: note = 2-Aminoisobutyric Acid; SITE 6: note = alpha-methyl-2-fluoro-L-phenylalanine; SITE 10: note = 3-(4-Pyridyl)-L-alanine; SITE 11: note = alpha-methyl-L-serine; SITE 13: note = alpha-methyl-leucine; SITE 16: note = L-ornithine; SITE 17: note = Lysine is chemically mo) [Example 707] = rule not met
• YXQGTXTSDXSILLDKKAQXAFIEYLXEGGPSSGAPPPSGTGE (synthetic construct; SITE 2: note = 2-Aminoisobutyric Acid; SITE 6: note = alpha-methyl-2-fluoro-L-phenylalanine; SITE 10: note = 3-(4-Pyridyl)-L-alanine; SITE 17: note = Lysine is chemically modified through conjugation of the epsilon-amino group of the Lysine side chain with (gamma-Glu)2-CO-(CH2)1) [Example 661] = rule not met
• YXQGTFTSDXSXXLDXKAQXAFIEYLIAGGPSSGAPPPSGSEE (acylated Lys, C-terminal amide, non-natural residues; synthetic construct; SITE 2: note = 2-Aminoisobutyric Acid; SITE 10: note = 3-(4-Pyridyl)-L-alanine; SITE 12: note = L-ornithine; SITE 13: note = alpha-methyl-leucine; SITE 16: note = L-ornithine; SITE 17: note = Lysine is chemically modified through conjugation of the epsilon-amino group of the Lys) [Example 1059] = rule met
• YXQGTFTSDXSQXLDKKAQXAFIEXLIEGGPSSGAPPPSGS (Aib, 4Pal, Me4Pal, alpha-methyl-Leu, lipidated Lys, amide; synthetic construct; SITE 2: note = 2-Aminoisobutyric Acid; SITE 10: note = 3-(4-Pyridyl)-L-alanine; SITE 13: note = alpha-methyl-leucine; SITE 17: note = Lysine is chemically modified through conjugation of the epsilon-amino group of the Lysine side chain with (2-[2-(2-Amino-ethoxy)-ethoxy]-acetyl)) [Example 948] = rule met
